Value source: the OligoGym collection

# assay.system: Mmp7 (rat)
# method.notes: reporter assay of Huesken 2005
# measurement.parameters: siRNA
Oligonucleotides are given in HELM: sugar(base)linkage, 5' to 3'; d 2'-deoxyribose, r ribose, m 2'-O-methylribose, p phosphate. ss, as = sense and antisense strand
So basically every entry gets a class from its normalised inhibition (eCFP-eYFP dual reporter), ranges being Low: < 50%; Medium: ≥ 50% and < 70%; High: ≥ 70%

substance	class.assignment
RNA1{r(U)p.r(C)p.r(A)p.r(A)p.r(G)p.r(A)p.r(G)p.r(G)p.r(G)p.r(U)p.r(U)p.r(A)p.r(G)p.r(U)p.r(U)p.r(G)p.r(G)p.r(G)p.r(G)p.d(T)p.d(T)}|RNA2{r(C)p.r(C)p.r(C)p.r(C)p.r(A)p.r(A)p.r(C)p.r(U)p.r(A)p.r(A)p.r(C)p.r(C)p.r(C)p.r(U)p.r(C)p.r(U)p.r(U)p.r(G)p.r(A)p.d(A)p.d(G)}$$$RNA1{StrandType:ss}|RNA2{StrandType:as}$	Low
RNA1{r(A)p.r(G)p.r(U)p.r(C)p.r(U)p.r(U)p.r(A)p.r(C)p.r(A)p.r(A)p.r(A)p.r(G)p.r(G)p.r(A)p.r(C)p.r(G)p.r(A)p.r(C)p.r(A)p.d(T)p.d(T)}|RNA2{r(U)p.r(G)p.r(U)p.r(C)p.r(G)p.r(U)p.r(C)p.r(C)p.r(U)p.r(U)p.r(U)p.r(G)p.r(U)p.r(A)p.r(A)p.r(G)p.r(A)p.r(C)p.r(U)p.d(G)p.d(A)}$$$RNA1{StrandType:ss}|RNA2{StrandType:as}$	High
RNA1{r(U)p.r(G)p.r(G)p.r(A)p.r(G)p.r(U)p.r(G)p.r(C)p.r(C)p.r(A)p.r(G)p.r(A)p.r(U)p.r(G)p.r(U)p.r(U)p.r(G)p.r(C)p.r(A)p.d(T)p.d(T)}|RNA2{r(U)p.r(G)p.r(C)p.r(A)p.r(A)p.r(C)p.r(A)p.r(U)p.r(C)p.r(U)p.r(G)p.r(G)p.r(C)p.r(A)p.r(C)p.r(U)p.r(C)p.r(C)p.r(A)p.d(C)p.d(A)}$$$RNA1{StrandType:ss}|RNA2{StrandType:as}$	High
RNA1{r(G)p.r(U)p.r(G)p.r(U)p.r(G)p.r(G)p.r(A)p.r(G)p.r(U)p.r(G)p.r(C)p.r(C)p.r(A)p.r(G)p.r(A)p.r(U)p.r(G)p.r(U)p.r(U)p.d(T)p.d(T)}|RNA2{r(A)p.r(A)p.r(C)p.r(A)p.r(U)p.r(C)p.r(U)p.r(G)p.r(G)p.r(C)p.r(A)p.r(C)p.r(U)p.r(C)p.r(C)p.r(A)p.r(C)p.r(A)p.r(C)p.d(C)p.d(T)}$$$RNA1{StrandType:ss}|RNA2{StrandType:as}$	High
RNA1{r(C)p.r(C)p.r(A)p.r(G)p.r(G)p.r(A)p.r(A)p.r(G)p.r(C)p.r(C)p.r(G)p.r(G)p.r(A)p.r(G)p.r(A)p.r(A)p.r(G)p.r(U)p.r(G)p.d(T)p.d(T)}|RNA2{r(C)p.r(A)p.r(C)p.r(U)p.r(U)p.r(C)p.r(U)p.r(C)p.r(C)p.r(G)p.r(G)p.r(C)p.r(U)p.r(U)p.r(C)p.r(C)p.r(U)p.r(G)p.r(G)p.d(G)p.d(A)}$$$RNA1{StrandType:ss}|RNA2{StrandType:as}$	High
RNA1{r(A)p.r(A)p.r(G)p.r(G)p.r(C)p.r(C)p.r(A)p.r(C)p.r(C)p.r(A)p.r(G)p.r(U)p.r(G)p.r(C)p.r(A)p.r(G)p.r(U)p.r(G)p.r(G)p.d(T)p.d(T)}|RNA2{r(C)p.r(C)p.r(A)p.r(C)p.r(U)p.r(G)p.r(C)p.r(A)p.r(C)p.r(U)p.r(G)p.r(G)p.r(U)p.r(G)p.r(G)p.r(C)p.r(C)p.r(U)p.r(U)p.d(C)p.d(T)}$$$RNA1{StrandType:ss}|RNA2{StrandType:as}$	Low
RNA1{r(U)p.r(G)p.r(C)p.r(A)p.r(G)p.r(A)p.r(A)p.r(G)p.r(C)p.r(C)p.r(C)p.r(A)p.r(G)p.r(G)p.r(U)p.r(G)p.r(U)p.r(G)p.r(G)p.d(T)p.d(T)}|RNA2{r(C)p.r(C)p.r(A)p.r(C)p.r(A)p.r(C)p.r(C)p.r(U)p.r(G)p.r(G)p.r(G)p.r(C)p.r(U)p.r(U)p.r(C)p.r(U)p.r(G)p.r(C)p.r(A)p.d(T)p.d(T)}$$$RNA1{StrandType:ss}|RNA2{StrandType:as}$	Medium
RNA1{r(A)p.r(C)p.r(U)p.r(G)p.r(G)p.r(A)p.r(C)p.r(G)p.r(G)p.r(A)p.r(U)p.r(G)p.r(G)p.r(U)p.r(G)p.r(A)p.r(G)p.r(G)p.r(A)p.d(T)p.d(T)}|RNA2{r(U)p.r(C)p.r(C)p.r(U)p.r(C)p.r(A)p.r(C)p.r(C)p.r(A)p.r(U)p.r(C)p.r(C)p.r(G)p.r(U)p.r(C)p.r(C)p.r(A)p.r(G)p.r(U)p.d(A)p.d(C)}$$$RNA1{StrandType:ss}|RNA2{StrandType:as}$	Low
RNA1{r(A)p.r(U)p.r(G)p.r(G)p.r(U)p.r(G)p.r(A)p.r(G)p.r(G)p.r(A)p.r(C)p.r(U)p.r(C)p.r(A)p.r(G)p.r(G)p.r(C)p.r(G)p.r(U)p.d(T)p.d(T)}|RNA2{r(A)p.r(C)p.r(G)p.r(C)p.r(C)p.r(U)p.r(G)p.r(A)p.r(G)p.r(U)p.r(C)p.r(C)p.r(U)p.r(C)p.r(A)p.r(C)p.r(C)p.r(A)p.r(U)p.d(C)p.d(C)}$$$RNA1{StrandType:ss}|RNA2{StrandType:as}$	Medium
